assayProtocol: chemical genetic growth profiling, strain panel (AID 1159580);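 note: tested at 20 µM; growth read once vehicle control cultures reached saturation at 30 °C; 1 = growth at the plate median or of vehicle wells; lower values mean less growth of the strain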
particulars: S. cerevisiae deletion strains, growth OD, locus YDR162C, strain NBP2, hits give low values
Among all 5,500 compounds or so, about 2,000 (36%) were called active. About 18% were inconclusive and are not listed. This is one part of the list.
assayReadout: normalized growth

compound="CC(=O)OC1CC(O)C(C)(C)C2CC(=O)C3(C)C(CCC4(C)C(c5ccoc5)OC(=O)C5OC543)C12C (stereo unspecified)" assayreadout="normalized growth" observedresult=1.01
compound=NC1(C(=O)O)CC1 assayreadout="normalized growth" observedresult=1.03
compound="COC1=CC(=O)OC(CCc2ccc(OC)c(OC)c2)C1 (stereo unspecified)" assayreadout="normalized growth" observedresult=1.01
compound="COc1ccc2c(c1)OCC(Cc1ccc(OC)c(O)c1)C2=O (stereo unspecified)" assayreadout="normalized growth" observedresult=0.982
compound="COc1ccc2c(c1)OCC(Cc1ccc(OC)c(OC(C)=O)c1)C2=O (stereo unspecified)" assayreadout="normalized growth" observedresult=0.957
compound=NC1(C(=O)O)CCCC1 assayreadout="normalized growth" observedresult=1.01
